The reported numbers originate from patent US9730929B2.

Biological target: human full-length MKNK1 (Homo sapiens (Human), UniProt Q9BUB5, T344D)
Sequence (Q9BUB5 other isoform, or with tags, fused parts or gaps T344D): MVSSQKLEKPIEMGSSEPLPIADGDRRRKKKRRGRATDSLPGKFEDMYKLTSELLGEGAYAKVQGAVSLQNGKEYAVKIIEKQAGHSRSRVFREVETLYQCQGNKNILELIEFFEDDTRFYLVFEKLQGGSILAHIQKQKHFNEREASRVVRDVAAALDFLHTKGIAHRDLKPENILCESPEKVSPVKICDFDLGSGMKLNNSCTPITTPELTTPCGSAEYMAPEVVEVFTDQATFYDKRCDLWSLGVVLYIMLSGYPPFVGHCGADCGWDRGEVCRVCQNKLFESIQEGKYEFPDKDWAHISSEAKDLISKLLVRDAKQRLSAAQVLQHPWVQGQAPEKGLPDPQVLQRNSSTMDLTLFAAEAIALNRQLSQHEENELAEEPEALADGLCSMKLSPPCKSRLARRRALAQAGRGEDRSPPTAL
Assay: MKNK1 kinase assay (TR-FRET, 10 μM ATP)
Assay type: biochemical
Conditions: ATP final conc. 10 μM; 15 min preincubation
Description: MKNK1-inhibitory activity of compounds of the present invention was quantified employing the MKNK1 TR-FRET assay as described in the following paragraphs. As substrate for the kinase reaction the biotinylated peptide biotin-Ahx-[…] (C-terminus in amide form) was used which can be purchased e.g. form the company Biosyntan (Berlin-Buch, Germany). […]
MEASUREMENT TYPE: IC50 (nM)

{"columns": ["MOLECULE", "READOUT VALUE"],
 "data": [
  ["COc1cccc2oc(-c3cnc4ccc(N(C)C[C@H](O)c5cccc(O)c5)nn34)cc12", 2],
  ["CN(C[C@H](O)c1cccc(O)c1)c1ccc2ncc(-c3cc4ccccc4o3)n2n1", 1],
  ["CCN(CCO)c1ccc2ncc(-c3cc4ccccc4o3)n2n1", 7],
  ["CN(CC(O)c1ccccc1)c1ccc2ncc(-c3cc4ccccc4o3)n2n1 (stereo not shown)", 3]
]}

* * *

target: human full-length MKNK1 (Homo sapiens (Human), UniProt Q9BUB5, T344D); experiment: MKNK1 kinase high ATP assay (TR-FRET, 2 mM ATP); type: biochemical; conditions: ATP final conc. 2 mM; 15 min preincubation
Field: label. Allowed values: TRUE (IC50 < 9 nM) or FALSE (IC50 >= 9 nM).

{"columns": ["COMPOUND", "CATEGORY LABEL"],
 "data": [
  ["OC(CN(c1ccc2ncc(-c3cc4ccccc4o3)n2n1)C1CC1)c1ccccc1 (stereo not drawn)", "FALSE"],
  ["CN(CC(O)c1ccccc1)c1ccc2ncc(-c3cc4ccncc4o3)n2n1 (stereo not drawn)", "TRUE"],
  ["CN(CC(O)c1ccccc1)c1ccc2ncc(-c3cc4ccccc4o3)n2n1 (single isomer, unassigned; (+)) [Example 13]", "FALSE"],
  ["CN(CC(O)c1cccnc1)c1ccc2ncc(-c3cc4ccccc4o3)n2n1 (stereo not drawn)", "TRUE"],
  ["CC(CO)N(C)c1ccc2ncc(-c3cc4ccccc4o3)n2n1 (stereo not drawn)", "FALSE"],
  ["CCN(CCO)c1ccc2ncc(-c3cc4ccccc4o3)n2n1", "FALSE"],
  ["CCOc1nccc2oc(-c3cnc4ccc(N(C)CC(O)c5ccccc5)nn34)cc12 (stereo not drawn)", "TRUE"],
  ["CC(C)CN(CC(O)c1ccccc1)c1ccc2ncc(-c3cc4ccccc4o3)n2n1 (stereo not drawn)", "FALSE"],
  ["CC(C)N(CC(O)c1ccccc1)c1ccc2ncc(-c3cc4ccccc4o3)n2n1 (stereo not drawn)", "FALSE"],
  ["COc1cccc2oc(-c3cnc4ccc(N(C)C[C@H](O)c5cccc(O)c5)nn34)cc12", "TRUE"],
  ["COc1nccc2oc(-c3cnc4ccc(N(C)C(C)CO)nn34)cc12 (stereo not drawn)", "FALSE"],
  ["CN(CC(O)c1ccccc1)c1ccc2ncc(-c3cc4ccccc4o3)n2n1 (stereo not drawn) [Example 10]", "TRUE"],
  ["CN(CC(O)c1ccccc1)c1ccc2ncc(-c3cc4ccccc4o3)n2n1 (single isomer, unassigned; (-)) [Example 12]", "TRUE"],
  ["COc1nccc2oc(-c3cnc4ccc(N(C)CC(C)O)nn34)cc12 (stereo not drawn)", "FALSE"],
  ["OC(CN(c1ccc2ncc(-c3cc4ccccc4o3)n2n1)C1CC1)c1ccc(F)cc1 (stereo not drawn)", "FALSE"],
  ["CN(CC(O)c1ccccc1)c1ccc2ncc(-c3cc4cnccc4o3)n2n1 (stereo not drawn)", "TRUE"],
  ["COc1nccc2oc(-c3cnc4ccc(N(C)CC(O)c5ccccc5)nn34)cc12 (stereo not drawn)", "TRUE"]
]}
